Assay: in vitro
Conditions: human, hepg2-a16-cd81egfp cells, % viability

[
  {
    "lineNotation": "O=C1C(=O)c2ncccc2-c2cccnc21",
    "viability at 3 µM / %": 24.2
  },
  {
    "lineNotation": "COc1cccc(NC(=O)CN(C)C(=O)c2oc3c(ccc4ccccc43)c2C)c1",
    "viability at 3 µM / %": 101
  },
  {
    "lineNotation": "O=C(Nc1ccncc1)Nc1cccc(Cl)c1Cl",
    "viability at 3 µM / %": 96.5
  },
  {
    "lineNotation": "C/C(=N\\NC(=O)c1ccccc1OCc1ccc(F)cc1)c1ccccn1",
    "viability at 3 µM / %": 82
  },
  {
    "lineNotation": "CCOc1ccc(C(=O)Nc2ccc(-c3nc4ccccc4[nH]3)cc2)cc1[N+](=O)[O-]",
    "viability at 3 µM / %": 101
  }
]

---

Assay: in vitro
Settings: human, hepg2-a16-cd81egfp cells, % viability

[
  {
    "compound": "CC(NCc1ccccc1O)C12CC3CC(CC(C3)C1)C2 (stereo not drawn)",
    "viability at 3 µM [%]": 97.5
  },
  {
    "compound": "CCOC(=O)c1c(NC(=O)C[n+]2ccc(N(C)C)cc2)sc(C)c1C",
    "viability at 3 µM [%]": 65.1
  },
  {
    "compound": "CCN(CC)C1=NC(=[N+](CC)CC)c2ccccc21.[O-][Cl+3]([O-])([O-])O",
    "viability at 3 µM [%]": 83.4
  },
  {
    "compound": "COc1ccc(NC(=O)CN(C)C(=O)c2ccc(-c3ccccc3Cl)o2)cc1",
    "viability at 3 µM [%]": 105
  },
  {
    "compound": "CCCCCCCc1c(C)[nH]c(N2CCOCC2)nc1=O",
    "viability at 3 µM [%]": 90.5
  },
  {
    "compound": "Cc1cc(Nc2nc3ccccc3nc2Cl)n(-c2ccccc2C)n1",
    "viability at 3 µM [%]": 98.3
  },
  {
    "compound": "Cc1ccc(C(=O)N/N=C/c2ccc([N+](=O)[O-])s2)cc1",
    "viability at 3 µM [%]": 95.4
  },
  {
    "compound": "CN1CCN(c2ccc(NC(=O)c3ccc(-c4cccc([N+](=O)[O-])c4)o3)cc2)CC1",
    "viability at 3 µM [%]": 107
  },
  {
    "compound": "CCOc1ccc(C(C)NC(S)=NC2CCCCC2)cc1OCC (stereo not drawn)",
    "viability at 3 µM [%]": 95.1
  }
]

---

Test: in vitro
Conditions: human, hepg2-a16-cd81egfp cells, % viability
compounds and their reported viability at 3 µM
quantityMeasured: viability at 3 µM (%)

[
  {
    "compound": "CCN1CCN(Cc2ccc(NC(=O)c3cc(NC(=O)c4cc(-c5ccc(OC)cc5)n[nH]4)cc(OC)c3)cc2C(F)(F)F)CC1",
    "reported": 97
  },
  {
    "compound": "Clc1ccc2c(N/N=C/c3ccc(Br)cc3)ccnc2c1",
    "reported": 104
  },
  {
    "compound": "C/C(=N\\NC(=O)c1cccc(Br)c1)c1ccccn1",
    "reported": 81.3
  },
  {
    "compound": "CCOc1ccccc1NC(=O)Cn1c(-c2ccc(Cl)cc2)noc1=O",
    "reported": 86.9
  },
  {
    "compound": "CCC1(OC(=O)CN)C(=O)OCc2c1cc1n(c2=O)Cc2cc3ccccc3nc2-1 (centres unmarked)",
    "reported": 29.3
  },
  {
    "compound": "CCOc1ccc(-n2c(SCC(N)=O)nc3sc4c(c3c2=O)CCN(C)C4)cc1",
    "reported": 95.7
  },
  {
    "compound": "C=CCNC(=S)N1CCN(c2ccc([N+](=O)[O-])cc2)CC1",
    "reported": 99.6
  },
  {
    "compound": "Cc1cc(C)cc(C(=O)Nc2ccc3c(N4CCCC4)ncnc3c2)c1",
    "reported": 31.8
  }
]

---

Assay: in vitro
Conditions: human, HepG2-A16-CD81EGFP cells, uninfected
quantityMeasured: viability at 48 h, 1 µM (%)

[
  {
    "compound": "COc1cc2c3nnc(-c4ccc(F)cc4)c-3cn(Cc3ccccc3F)c2cc1OC [MLS000419426-01]",
    "unitName": "%",
    "reported": 113
  },
  {
    "compound": "Cc1cccc(NC(=O)c2cc(S(=O)(=O)N(C)c3ccc(F)cc3)ccc2Cl)n1 [MLS001160863-01]",
    "unitName": "%",
    "reported": 97
  },
  {
    "compound": "Cc1ccc(CSCc2ccc(C(=O)NC3CC3)o2)cc1 [MLS001031023-01]",
    "unitName": "%",
    "reported": 93
  },
  {
    "compound": "O=C(CCl)N(c1ccccc1)c1c[nH]c2ccccc12 [MLS000554103-01]",
    "unitName": "%",
    "reported": 100
  },
  {
    "compound": "ClC(Cl)(Cl)c1nc2ccccc2n2nncc12 [MLS001171504-01]",
    "unitName": "%",
    "reported": 106
  },
  {
    "compound": "CCC(CC)c1cc([C@H]2CN3CC[C@H]2C[C@@H]3CNC(=O)COc2ccccc2)nc(-c2ccncc2)n1 [NCGC00420983-01]",
    "unitName": "%",
    "reported": 102
  },
  {
    "compound": "CC1CCCCN1Cc1c(O)ccc2c(=O)c(-c3nc4ccccc4s3)c(N)oc12 (centres unmarked) [MLS000591245-01]",
    "unitName": "%",
    "reported": 98
  },
  {
    "compound": "O=C(Nc1ccccc1O)c1ccc(NC(=O)C2CC2)cc1 [MLS001162082-01]",
    "unitName": "%",
    "reported": 114
  }
]

---

Tested on: P. falciparum Dd2 (clone B2) asexual blood stage parasites
Experiment: P. falciparum Dd2 asexual blood stage SYBR Green-I 72 h proliferation assay (qHTS)
Format: cell-based, Plasmodium falciparum
Conditions: Plasmodium falciparum, DD2, 72 h, SYBR Green 72 h; WT Dd2-B2; read-out: AC50 Log[M] ± SD, Dd2-B2 (parental line) (converted)
compounds and their reported AC50
quantityMeasured: AC50 (M)

[
  {
    "compound": "O=C1C(O)=C([C@H]2CC[C@H](c3ccc(Cl)cc3)CC2)C(=O)c2ccccc21 [Atovaquone, atovaquone, reference compound]",
    "quantityMeasured": "AC50",
    "unitName": "M",
    "reported": "3.31e-09"
  },
  {
    "compound": "CCCN1C(CC(C)C)=NS(=O)(=O)c2cc(NC(=O)c3ccc(F)cc3)ccc21",
    "quantityMeasured": "AC50",
    "unitName": "M",
    "reported": "5.25e-07"
  },
  {
    "compound": "CCCN1C(CC(C)C)=NS(=O)(=O)c2cc(NC(=O)c3ccc(F)s3)ccc21",
    "quantityMeasured": "AC50",
    "unitName": "M",
    "reported": "1.12e-07"
  },
  {
    "compound": "CCN(CC)Cc1cc(Nc2ccnc3cc(Cl)ccc23)ccc1O [Amodiaquine, amodiaquine, reference compound]",
    "quantityMeasured": "AC50",
    "unitName": "M",
    "reported": "4.68e-08"
  },
  {
    "compound": "CCCN1C(c2ccccc2)=NS(=O)(=O)c2cc(NC(=O)c3ccc(F)cc3)ccc21",
    "quantityMeasured": "AC50",
    "unitName": "M",
    "reported": "8.91e-07"
  },
  {
    "compound": "CCCN1C(CC(C)C)=NS(=O)(=O)c2cc(NC(=O)c3ccsc3)ccc21",
    "quantityMeasured": "AC50",
    "unitName": "M",
    "reported": "2e-06"
  },
  {
    "compound": "CCCN1C(CC(C)C)=NS(=O)(=O)c2cc(NC(=O)Nc3nccs3)ccc21",
    "quantityMeasured": "AC50",
    "unitName": "M",
    "reported": "2.14e-06"
  },
  {
    "compound": "Cc1cc(Nc2ccc(S(F)(F)(F)(F)F)cc2)n2nc(C(C)(F)F)nc2n1 [DSM265, reference compound]",
    "quantityMeasured": "AC50",
    "unitName": "M",
    "reported": "3.8e-08"
  }
]

---

Tested on: P. berghei-ANKA-GFP-LucCON liver stage parasites in HepG2-A16-CD81EGFP cells
Test: P. berghei liver stage Pb-Luc assay, Method 1 (UCSD, 1536-well)
Type: cell-based, Plasmodium berghei
Details: Plasmodium berghei, 48 h, nominal 1 uM (10 mM stock); […] for 15 mM, 1.2 uM for 12 mM, 2 uM for 20 mM stock; average of 2 wells, 1536-well plate; repeat 2; read-out: Pb-Luc signal, 1 uM, repeat 2
compounds and their reported activity at 1 µM
quantityMeasured: activity at 1 µM (%)

[
  {
    "compound": "COc1ccc(-c2cc(=O)oc3c4c(ccc23)OCN(Cc2ccccc2)C4)cc1",
    "reported": 126
  },
  {
    "compound": "Cc1ccc(C)c(Oc2c(C(F)(F)F)oc3c(CN4CCN(C)CC4)c(O)ccc3c2=O)c1",
    "reported": 131
  },
  {
    "compound": "O=C1NCc2ccccc2CC12CCCN(Cc1ccccc1)C2 (centres unmarked)",
    "reported": 117
  },
  {
    "compound": "COc1ccccc1CN1COc2ccc3c(oc(=O)c4ccccc43)c2C1",
    "reported": 85.1
  },
  {
    "compound": "CCC(=O)N1CCc2cc(Br)cc([S+](=O)([O-])N3CCCC(C(=O)Nc4ccc(OC)c(Cl)c4)C3)c21 (centres unmarked)",
    "reported": 86.6
  },
  {
    "compound": "Cc1ccccc1CC(=O)NCc1nnc2cc(-c3nc(C4CC4)no3)ccn12",
    "reported": 129
  },
  {
    "compound": "CCN1CCN(c2cc(C)c3cc(NC(=O)c4cc(OC)c(OC)c(OC)c4)ccc3n2)CC1",
    "reported": 156
  },
  {
    "compound": "O=C(Nc1ccc2c(N3CCOCC3)ncnc2c1)c1cccc(Br)c1",
    "reported": 72.5
  }
]

Values compiled from paper PMC7822874.
